# measurement-notes: Acute toxicity in mouse at 150 mg/kg, ip administered as single dose
# Format: organism-based
# assay-context: in vivo
observable: Activity

Solved entries:
Consider "Cn1nc(C(F)(F)F)c(N=O)c1-c1ccccc1" . Its measured Activity is Non-Toxic

Consider "Cl.Nc1c(C(F)(F)F)n[nH]c1-c1cccs1" . Its measured Activity is Toxic

Consider "Nc1c(C(F)(F)F)n[nH]c1-c1ccccc1" . Its measured Activity is Non-Toxic

Consider "Cc1ccc(-c2[nH]nc(C(F)(F)F)c2N=O)cc1" . Its measured Activity is Non-Toxic

Please find the next molecule below.
Consider "Cc1[nH]nc(C(F)(F)F)c1N=O" . Its measured Activity is Toxic
